Target: Pro-neuregulin-1, membrane-bound isoform (Homo sapiens)
Assay: small molecules binding neuregulin-1 protein – biochemical, small-molecule microarray, fluorescence 635/667, psychiatric disease protein project, primary screen (AID 1075);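 also: score combines 667 nm spot fluorescence with signal to noise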
Details: NRG1 binding, 635 nm fluorescence, higher = more signal
# binarize composite z-score: threshold 0.9 inclusive, high side true (1), low side false (0)

>  <Molecule>
[N-]=[N+]=NCc1ccccc1C[C@@]1(C(=O)NCCN2CCOCC2)N=C(c2ccc(OCCCO)cc2)O[C@@H]1c1ccccc1CN=[N+]=[N-]

>  <Group>
true (1)

$$$$
>  <Molecule>
O=C1c2ccccc2[C@](Cc2ccccc2I)(C(=O)NC2CC2)[C@H](c2ccc(CO)cc2)N1Cc1ccccc1Cl

>  <Group>
true (1)

$$$$
>  <Molecule>
COC(=O)[C@@]1(Cc2ccccc2)[C@H]2c3cc(C(=O)N(C)C)n(Cc4ccc(O)c(OC)c4)c3C[C@H]2CN1C(=O)c1ccccc1

>  <Group>
true (1)

$$$$
>  <Molecule>
C=CCC(OC(C)=O)[C@@H]1[C@@H](N(Cc2ccc(-c3cccc(C(F)(F)F)c3)o2)C(=O)c2cccc3ccccc23)c2cc(OCCCO)ccc2N1C(=O)c1ccc(-c2ccccc2)cc1 (some centres not stated)

>  <Group>
false (0)

$$$$
>  <Molecule>
CCOC(=O)C1=CCC(c2cccc(Cl)c2)O1 (configuration not stated)

>  <Group>
true (1)

$$$$
>  <Molecule>
COC(=O)[C@@]1(Cc2ccc(OC)cc2)[C@H]2c3cc(C(=O)N4CCCC4)n(Cc4ccc(C)o4)c3C[C@H]2CN1C(=O)c1ccccc1

>  <Group>
true (1)

$$$$
>  <Molecule>
COC(=O)C(CC#Cc1ccc2c(c1)[C@]1(C(=O)N2)[C@H](c2ccc(O)cc2)N2[C@H](c3ccccc3)[C@H](c3ccccc3)OC(=O)[C@H]2[C@@H]1C(=O)O)C(=O)OC

>  <Group>
false (0)

$$$$

* * *

Experiment: small molecules captured by biotinylated probe aFSTL3 – biochemical, small-molecule microarray, fluorescence 635/667, stem cell growth factor project, primary screen (AID 1064);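 also: measures binding of the biotinylated anti-FSTL3 antibody to printed compounds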
Conditions: higher = more signal
Readout name: composite z-score

>  <Compound>
COC(=O)[C@@]1(Cc2ccc(OC)cc2)[C@H]2c3cc(C(=O)N4CCCC4)n(Cc4ccc(C)o4)c3C[C@H]2CN1C(=O)c1ccccc1

>  <Readout name>
composite z-score

>  <Quantitative result>
0.833

$$$$
>  <Compound>
CC(C)(C)OC(=O)CC[C@@]1(C(=O)N2CCCCC2)N=C(c2ccc(OCCCO)cc2)O[C@@H]1c1ccccc1N=[N+]=[N-]

>  <Readout name>
composite z-score

>  <Quantitative result>
0.358

$$$$
>  <Compound>
O=C1O[C@H](c2ccccc2)[C@H](c2ccccc2)N2[C@H]1[C@@H](C(=O)N1CCCCCCC1)[C@]1(C(=O)Nc3ccccc31)[C@H]2c1ccc(O)cc1

>  <Readout name>
composite z-score

>  <Quantitative result>
4.2

$$$$
>  <Compound>
CCCC=C(CCC)[C@@H](NS(=O)(=O)c1ccccc1)c1ccc(C(F)(F)F)cc1

>  <Readout name>
composite z-score

>  <Quantitative result>
-0.201

$$$$
>  <Compound>
COC(=O)[C@]1(Cc2ccccc2N=[N+]=[N-])N=C(c2ccc(OCCCO)cc2)O[C@@H]1c1ccccc1

>  <Readout name>
composite z-score

>  <Quantitative result>
1.3

$$$$
>  <Compound>
CO[C@H]1O[C@H](CO)[C@@H](OC(=O)c2ccc(Br)cc2)[C@@H]2OC(=O)[C@H](Cc3cccc(Br)c3)C/C=C/C[C@@H](Cc3cccc(Br)c3)C(=O)O[C@@H]12

>  <Readout name>
composite z-score

>  <Quantitative result>
0.174

$$$$
>  <Compound>
COC(=O)c1ccc(OC)c(/C=C\CC(CCc2ccccc2)OC(=O)c2ccncc2)c1 (stereo not given)

>  <Readout name>
composite z-score

>  <Quantitative result>
0.233

$$$$
>  <Compound>
COC(=O)[C@@]1(Cc2ccccc2)[C@H]2c3cc(C(=O)N(C)C)n(Cc4ccc(O)c(OC)c4)c3C[C@H]2CN1C(=O)c1ccccc1

>  <Readout name>
composite z-score

>  <Quantitative result>
0.709

$$$$
>  <Compound>
COC(=O)[C@@]1(Cc2ccccc2)[C@H]2c3cc(C(=O)N4CCCC4)n(Cc4ccccc4)c3C[C@H]2CN1C(=O)c1ccccc1

>  <Readout name>
composite z-score

>  <Quantitative result>
0.425

$$$$
>  <Compound>
CC1=C2[C@@H](CCc3ccccc3)OB(O)C[C@@H]2[C@@H]2C(=O)C=CC(=O)[C@@H]2C1

>  <Readout name>
composite z-score

>  <Quantitative result>
-0.741

$$$$
>  <Compound>
Cc1cc(C)c(C(O)C2C=CC3C(=O)N(c4ccccc4)C(=O)C3N2Nc2ccc([N+](=O)[O-])cc2)c(C)c1 (stereo not given)

>  <Readout name>
composite z-score

>  <Quantitative result>
0.0096

$$$$
>  <Compound>
C=C(COC)C(=O)CC[C@H](OC(=O)c1ccccc1-c1ccccc1C(=O)O)c1ccc(OCCO)cc1

>  <Readout name>
composite z-score

>  <Quantitative result>
-0.249

$$$$
>  <Compound>
CC(C)C[C@@H]1NC(=O)[C@@H]2C[C@H](C(=O)NCc3ccc(F)cc3)[C@H](c3ccc(O)cc3)N2C1=O

>  <Readout name>
composite z-score

>  <Quantitative result>
0.454

$$$$
>  <Compound>
CC[C@@H]1[C@@H]2C3C(=O)N(CC)C(=O)C3CC(=O)[C@@H]2[C@H](c2ccc(C)cc2)N1S(=O)(=O)c1ccc(C)cc1 (stereo not given in full)

>  <Readout name>
composite z-score

>  <Quantitative result>
-0.38

$$$$
>  <Compound>
O=C(O)[C@]1(CCS(=O)(=O)c2ccccc2)N=C(c2ccc(OCCCO)cc2)O[C@@H]1c1ccccc1

>  <Readout name>
composite z-score

>  <Quantitative result>
1.19

$$$$

* * *

Assay: JC-1 mitochondrial signal, unstimulated HepG2 cells – cell-based, JC-1 fluorescence, 24 h, 100 nL compound, profiling panel (AID 1167); also: test concentration not given here
Conditions: HepG2 mitochondrial potential, higher = more signal
# binarize z-score: threshold -0.5 inclusive, high side class 1, low side class 0

>  <Molecule>
COC(=O)[C@@]1(Cc2ccc(F)cc2)[C@H]2c3cc(C(=O)N(C)C)n(Cc4ccc(C)c(F)c4F)c3C[C@H]2CN1C(=O)c1ccccc1

>  <Group>
class 1

$$$$
>  <Molecule>
CC(C)c1ccc(NN2C(C(O)c3cccs3)C=CC3C(=O)N(c4ccccc4)C(=O)C32)cc1 (stereo not drawn)

>  <Group>
class 0

$$$$
>  <Molecule>
C=CCOC(=O)[C@@H]1[C@H]2C(=O)O[C@H](c3ccccc3)[C@H](c3ccccc3)N2[C@H](c2ccc(OCCOC(=O)[C@@H]3C[C@@H]4C(=O)N[C@@H](CCCCNC(C)=O)C(=O)N4[C@@H]3c3ccc(O)cc3)cc2)[C@@]12C(=O)Nc1ccc(I)cc12

>  <Group>
class 1

$$$$
>  <Molecule>
COc1ccc(C#Cc2ccc3c(c2)[C@]2(C(=O)N3)[C@H](c3ccc(OCCO)cc3)N3[C@H](c4ccccc4)[C@H](c4ccccc4)OC(=O)[C@H]3[C@@H]2C(=O)N2CCN(c3ncccn3)CC2)cc1

>  <Group>
class 0

$$$$
>  <Molecule>
COc1cc(C(O)C2C=CC3C(=O)N(C)C(=O)C3N2NC(=O)OC(C)(C)C)cc(OC)c1OC (stereo not drawn)

>  <Group>
class 0

$$$$
>  <Molecule>
CCOC(=O)C[C@H]1[C@H](OC(=O)Cc2ccc3c(c2)OCO3)[C@@H](NC(=O)c2ccccc2)c2cc(OCCCO)ccc2N1C(=O)c1ccccc1

>  <Group>
class 1

$$$$
>  <Molecule>
CCN(CC)c1ccc(N2CC=CC34O[C@@H]5/C=C\CCCOC(=O)C5[C@H]3C(=O)N(CCCCCO)[C@@H]4C2=O)cc1 (stereo partly drawn)

>  <Group>
class 0

$$$$
>  <Molecule>
O=C(N1CCOCC1)[C@@]1(CCS(=O)(=O)c2ccccc2)COC(c2ccc(OCCCO)cc2)=N1

>  <Group>
class 1

$$$$
>  <Molecule>
CCOC(=O)C[C@H]1[C@H](OC(=O)c2ccc(C(=O)c3ccccc3)cc2)[C@@H](NC(=O)C2CCCCC2)c2cc(OCCCO)ccc2N1C(=O)Cc1ccc(OC)cc1

>  <Group>
class 1

$$$$
>  <Molecule>
CCOC(=O)C1=CC[C@@H](c2cccc(Br)c2)N(S(=O)(=O)c2ccc(C)cc2)[C@H]1c1ccc([N+](=O)[O-])cc1

>  <Group>
class 1

$$$$
>  <Molecule>
COC(=O)[C@@]1(Cc2ccccc2)[C@H]2c3cc(C(=O)N4CCCC4)n(Cc4ccc(OC(F)(F)F)cc4)c3C[C@H]2CN1C(=O)c1ccccc1

>  <Group>
class 1

$$$$
>  <Molecule>
COCCOC(=O)N1C(=O)[C@@]2(c3cc(C#CCNC(N)=O)ccc31)[C@H](C(=O)N1CCCCCCC1)[C@H]1C(=O)O[C@H](c3ccccc3)[C@H](c3ccccc3)N1[C@@H]2c1ccc(OCCO)cc1

>  <Group>
class 0

$$$$
>  <Molecule>
COc1ccc([Si](C)(C)[C@@H]2[C@@H](CCO)O[C@]3(C(=O)N(Cc4cccc(N5C(=O)COc6ccccc65)c4)c4ccccc43)[C@H]2C)cc1

>  <Group>
class 0

$$$$
